Recorded values, source PubChem BioAssay (NCI).

System: SNB-19 CNS
protocol-notes: NCI-60 one-dose screen, 48 h (100 = growth as untreated, 0 = no growth, -100 = all killed)
setup-conditions: 10 µM unless noted
The panel holds about 83,000 compounds, 20% with a hit somewhere; the sample as a whole holds those more often.
Measured growth by item
Please state the figure in %; there is no need to write the unit.

Below, each entry is followed by its recorded growth result.
{"compound": "O=C1C(c2c(O)[nH]c3ncccc23)=Nc2ccccc21", "measured-metric": "growth", "result": 96.4}
{"compound": "COc1cc(OCc2cccc(-c3ccccc3)c2C)cc(OC)c1CN1CCCCC1C(=O)NCCOCCOCCN (stereo not given)", "measured-metric": "growth", "result": 67.9}
{"compound": "Cc1cc2nc(C(Cl)Cl)nc(-c3ccccc3)n2n1", "measured-metric": "growth", "result": 62.7}
{"compound": "O=C(Nc1ncc(Cc2ccccc2Cl)s1)c1ccc2c(c1)OCCO2", "measured-metric": "growth", "result": 36}

Q: So what's the measured growth for this one? Cc1[nH]c(C2CC(c3ccc(C(F)(F)F)c(F)c3)=NN2C)c(C)c1C(=O)NCC(F)(F)F (stereo not given)
A: 91.9
